These measurements were taken from patent US4698327A.

Measured MIC, listed per entry.
system: Staphylococcus aureus X400; experiment: MIC, standard agar-dilution assay; assay type: cell-based

- MOLECULE: "CCCCOc1ccc(CNC2(C)CC(OC3C(Oc4c5cc6cc4Oc4ccc(cc4Cl)C(O)C4NC(=O)C(NC(=O)C6NC(=O)C(CC(N)=O)NC(=O)C(NC(=O)C(CC(C)C)NC)C(O)c6ccc(c(Cl)c6)O5)c5ccc(O)c(c5)-c5c(O)cc(O)cc5C(C(=O)O)NC4=O)OC(CO)C(O)C3O)OC(C)C2O)cc1 (stereo not drawn)"
  EXPERIMENTAL SYSTEM: "Staphylococcus aureus X400"
  MIC [µg/mL]: 0.125
- MOLECULE: "CCCCCCCCCCNC1(C)CC(OC2C(Oc3c4cc5cc3Oc3ccc(cc3Cl)C(O)C3NC(=O)C(NC(=O)C5NC(=O)C(CC(N)=O)NC(=O)C(NC(=O)C(N)CC(C)C)C(O)c5ccc(c(Cl)c5)O4)c4ccc(O)c(c4)-c4c(O)cc(O)cc4C(C(=O)O)NC3=O)OC(CO)C(O)C2O)OC(C)C1O (stereo not drawn) [Compound 26, N^van --(n-decyl)-A51568A]"
  EXPERIMENTAL SYSTEM: "Staphylococcus aureus X400"
  MIC [µg/mL]: 0.25
- MOLECULE: "CCCCCCCNC1(C)CC(OC2C(Oc3c4cc5cc3Oc3ccc(cc3Cl)C(O)C(NC(=O)C(CC(C)C)N(C)CCCCCCC)C(=O)NC(CC(N)=O)C(=O)NC5C(=O)NC3C(=O)NC(C(=O)NC(C(=O)O)c5cc(O)cc(O)c5-c5cc3ccc5O)C(O)c3ccc(c(Cl)c3)O4)OC(CO)C(O)C2O)OC(C)C1O (stereo not drawn)"
  EXPERIMENTAL SYSTEM: "Staphylococcus aureus X400"
  MIC [µg/mL]: 1

* * *

tested on: Staphylococcus aureus X400; assay: MIC, standard agar-dilution assay; assay type: cell-based

- MOLECULE: "CNC(CC(C)C)C(=O)NC1C(=O)NC(CC(N)=O)C(=O)NC2C(=O)NC3C(=O)NC(C(=O)NC(C(=O)O)c4cc(O)cc(O)c4-c4cc3ccc4O)C(O)c3ccc(c(Cl)c3)Oc3cc2cc(c3OC2OC(CO)C(O)C(O)C2OC2CC(C)(NCc3ccc(Br)cc3)C(O)C(C)O2)Oc2ccc(cc2Cl)C1O (stereo not drawn)"
  EXPERIMENTAL SYSTEM: "Staphylococcus aureus X400"
  MIC (µg/mL): 0.25
- MOLECULE: "CCCCc1ccc(CNC2(C)CC(OC3C(Oc4c5cc6cc4Oc4ccc(cc4Cl)C(O)C4NC(=O)C(NC(=O)C6NC(=O)C(CC(N)=O)NC(=O)C(NC(=O)C(CC(C)C)NC)C(O)c6ccc(c(Cl)c6)O5)c5ccc(O)c(c5)-c5c(O)cc(O)cc5C(C(=O)O)NC4=O)OC(CO)C(O)C3O)OC(C)C2O)cc1 (stereo not drawn)"
  EXPERIMENTAL SYSTEM: "Staphylococcus aureus X400"
  MIC (µg/mL): 0.125
- MOLECULE: "CNC(CC(C)C)C(=O)NC1C(=O)NC(CC(N)=O)C(=O)NC2C(=O)NC3C(=O)NC(C(=O)NC(C(=O)O)c4cc(O)cc(O)c4-c4cc3ccc4O)C(O)c3ccc(c(Cl)c3)Oc3cc2cc(c3OC2OC(CO)C(O)C(O)C2OC2CC(C)(NCc3ccc(O)cc3)C(O)C(C)O2)Oc2ccc(cc2Cl)C1O (stereo not drawn) [Example 105, N^van --( -p-hydroxybenzyl)vancomycin]"
  EXPERIMENTAL SYSTEM: "Staphylococcus aureus X400"
  MIC (µg/mL): 0.5
